test: Antioxidant activity assessed as trolox equivalents ratio of AAPH radical scavenging activity after 30 mins by ORAC-fluorescein assay; assay type: functional
measure: Ratio

- chemicalStructure: "COC(=O)[C@H](CS)NC(=O)/C=C/c1ccc(O)c(OC)c1"
  experimentalResult: 1.4
- chemicalStructure: "COC(=O)[C@@H](N)CS.Cl"
  experimentalResult: 0.3
- chemicalStructure: "O=C(Cc1ccc(O)c(O)c1)N[C@@H](CS)C(=O)NCCc1ccc(O)c(O)c1"
  experimentalResult: 1.77
- chemicalStructure: "COC(=O)[C@H](Cc1ccc(O)cc1)NC(=O)/C=C/c1ccc(O)c(O)c1"
  experimentalResult: 3.4
- chemicalStructure: "CSCC[C@H](NC(=O)Cc1ccc(O)c(O)c1)C(=O)NCCc1ccc(O)c(O)c1"
  experimentalResult: 1.24
- chemicalStructure: "COC(=O)[C@H](Cc1ccc(O)cc1)NC(=O)Cc1ccc(O)c(O)c1"
  experimentalResult: 4.8
- chemicalStructure: "COC(=O)[C@@H](N)Cc1ccc(O)cc1.Cl"
  experimentalResult: 3.9
- chemicalStructure: "COC(=O)[C@H](CS)NC(=O)Cc1ccc(O)c(OC)c1"
  experimentalResult: 2.4
- chemicalStructure: "O=C(/C=C/c1ccc(O)c(O)c1)N[C@@H](CS)C(=O)NCCc1ccc(O)c(O)c1"
  experimentalResult: 0.855

---

Each record here notes measured Ratio.
assay: Antioxidant activity assessed as trolox equivalents ratio of AAPH radical scavenging activity after 30 mins by ORAC-fluorescein assay; assay type: functional

- compound: "COC(=O)[C@H](CS)NC(=O)/C=C/c1cc(OC)c(O)c(OC)c1"
  Ratio: 1.3
- compound: "O=C(O)/C=C/c1ccc(O)c(O)c1"
  Ratio: 2.7
- compound: "COC(=O)[C@@H](N)CCSC.Cl [METHIONINE METHYL ESTER HYDROCHLORIDE]"
  Ratio: 0.8
- compound: "O=C(Cc1ccc(O)c(O)c1)N[C@@H](Cc1ccc(O)cc1)C(=O)NCCc1ccc(O)c(O)c1"
  Ratio: 3.82
- compound: "O=C(O)Cc1ccc(O)c(O)c1 [3,4-DIHYDROXYPHENYLACETIC ACID]"
  Ratio: 4.2

---

experiment: Antioxidant activity assessed as trolox equivalents ratio of AAPH radical scavenging activity after 30 mins by ORAC-fluorescein assay; format: functional
I'd appreciate it if you marked entries 1 when Ratio is lower than 3 and -1 when it is not.

- chemicalStructure: "COC(=O)[C@H](CCSC)NC(=O)/C=C/c1ccc(O)c(O)c1"
  label: 1
- chemicalStructure: "O=C(/C=C/c1ccc(O)c(O)c1)N[C@@H](Cc1ccc(O)cc1)C(=O)NCCc1ccc(O)c(O)c1"
  label: 1
- chemicalStructure: "CSCC[C@H](NC(=O)/C=C/c1ccc(O)c(O)c1)C(=O)NCCc1ccc(O)c(O)c1"
  label: -1
- chemicalStructure: "COC(=O)[C@H](CS)NC(=O)/C=C/c1ccc(O)c(O)c1"
  label: 1
- chemicalStructure: "COC(=O)[C@H](CCSC)NC(=O)Cc1ccc(O)c(O)c1"
  label: -1

Each recorded value in this set is attributed to ChEMBL document CHEMBL1949533.
